The reported measurements were obtained from patent US7998940B2.

Entries and their Screen- Rabbit/No Protein values follow.
test system: rabbit vWF A1 domain (SEQ ID NO 6); test: 3-point dot blot screen, rabbit vWF A1 domain; format: binding; conditions: rRdY aptamers; 100 nM rabbit vWF A1 domain; ratio of fraction bound with target to without
Sequence (as listed by the source): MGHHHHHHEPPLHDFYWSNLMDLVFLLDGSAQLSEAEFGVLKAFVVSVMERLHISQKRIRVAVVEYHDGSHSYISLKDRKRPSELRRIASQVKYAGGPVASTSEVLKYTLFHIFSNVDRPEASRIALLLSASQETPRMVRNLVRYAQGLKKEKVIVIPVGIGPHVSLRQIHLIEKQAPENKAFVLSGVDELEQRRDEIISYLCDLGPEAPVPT
Oligonucleotides are written 5' to 3', each unit as a sugar letter and its base; * is a phosphorothioate linkage, no mark a phosphodiester; rarer units and linkages stand in square brackets, end groups in braces. Plain capitals give the bases only. d = 2'-deoxy (DNA); r = 2'-OH (RNA)

{"columns": ["Molecule", "Screen- Rabbit/No Protein"],
 "data": [
  ["AMX206.F9: rRdY aptamer clone (nucleic acid) rGrGrArGdCrGdCrAdCdTdCrArGdCdCrAdCrGrGrArGdCrGdTdCrGrGdTrGrAdTrGrGrAdTdTrArGdCrGdCrGrGdCdTdCdCrGdTrGrGdTrAdCrAdCrAdTdTdTdCrGrAdCdCdTdCdTdCdTrGdCdTrArGdC", 3.00],
  ["AMX203.D6: rRdY aptamer clone (nucleic acid) rGrGrArGdCrGdCrAdCdTdCrArGdCdCrAdCrArGdTdTdCdTrGdTdCrGrGdTrGrAdTrGrArAdTdTrArGdCrGdCrGrArGrArGdCdTrGdTrGrGrGrAdCrGdTdTdTdCrGrAdCdCdTdCdTdCdTrGdCdTrArGdC", 1.57]
]}
